Here the recorded EC50 is given for each entry.
Biological target: mouse RORγ (Mus musculus)
Construct: mouse, NM_011281.2 and from Ile251 to Lys516; expressed in transfected cells; host or cells: CHO cells (transient co-transfection with pG5-Luc reporter)
Sequence (P51450 251-516): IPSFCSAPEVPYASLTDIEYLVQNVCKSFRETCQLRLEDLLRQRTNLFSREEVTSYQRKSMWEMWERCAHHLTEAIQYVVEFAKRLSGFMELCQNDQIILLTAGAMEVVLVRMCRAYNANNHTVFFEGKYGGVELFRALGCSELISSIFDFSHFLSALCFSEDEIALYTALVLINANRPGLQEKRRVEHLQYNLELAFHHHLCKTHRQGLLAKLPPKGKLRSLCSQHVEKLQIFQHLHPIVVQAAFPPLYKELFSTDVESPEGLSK
Test: Luciferase reporter gene assay of inhibitory effect against RORγ transcriptional activity (GAL4-mRORγ plasmid in CHO cells)
Assay type: cell-based
Details: read-out: LUC EC50 (μM) mRORg
property_measured: EC50

molecule=Cc1ccc(NC(=O)C[C@@H](CCO)c2nnc(CCC3CCCCC3)n2C2CC2)c(C)c1 target_desc="mouse RORγ (Mus musculus)" value_reported="> 3 µM"
molecule=O=C(CCc1nnc(C2Cc3ccccc3C2)[nH]1)Nc1cccc2ccccc12 target_desc="mouse RORγ (Mus musculus)" value_reported="> 3 µM"
molecule=Cc1ccc(NC(=O)C[C@H](CCC(=O)O)c2onc(-c3cc(CC(C)(C)C)on3)c2C2CC2)c(Cl)c1 target_desc="mouse RORγ (Mus musculus)" value_reported="< 3 µM"
molecule=CC(=O)N(CCc1nnc(CCC(=O)Nc2cccc(Cl)c2C)n1C1CC1)C(C)C target_desc="mouse RORγ (Mus musculus)" value_reported="> 3 µM"
molecule=Cc1ncccc1NC(=O)CCc1nnc(CCC(C)C)n1C1CC1 target_desc="mouse RORγ (Mus musculus)" value_reported="> 3 µM"
molecule=Cc1ccc(NC(=O)C[C@H](CCC(=O)O)c2noc(-c3cc(C(F)(F)CC(C)(C)C)on3)c2C2CC2)c(Cl)c1 target_desc="mouse RORγ (Mus musculus)" value_reported="< 3 µM"
molecule=Cc1ccc(NC(=O)C[C@H](CCC(=O)O)c2noc(-c3cc(C(F)(F)C(C)(C)C)on3)c2C2CC2)c(F)c1 target_desc="mouse RORγ (Mus musculus)" value_reported="< 3 µM"
molecule="Cc1ccc(NC(=O)CC(Cc2cc(O)no2)c2nnc([C@H]3C[C@@H](CC(C)C)C3)n2C2CC2)c(C)c1 (mixture of isomers)" target_desc="mouse RORγ (Mus musculus)" value_reported="< 3 µM"
molecule=Cc1ccc(NC(=O)C[C@@H](CC#N)c2nnc([C@H]3C[C@@H](CC(C)C)C3)n2C2CC2)c(C)c1 target_desc="mouse RORγ (Mus musculus)" value_reported="< 3 µM"
molecule="CC(=O)N1C[C@H](C(=O)Nc2ccc(C)cc2C)[C@@H](c2nnc(CCCC(C)(C)C)n2CC(F)(F)F)C1 [Example F-392]" target_desc="mouse RORγ (Mus musculus)" value_reported="< 3 µM"
molecule=CC(C)CCc1nnc(CCC(=O)Nc2cccc(Cl)c2F)n1C1CC1 target_desc="mouse RORγ (Mus musculus)" value_reported="> 3 µM"
molecule="Cc1ccc(NC(=O)CC(c2nnc([C@H]3C[C@@H](CC(C)C)C3)n2C2CC2)C2CN(C)C2)c(C)c1 (mixture of isomers)" target_desc="mouse RORγ (Mus musculus)" value_reported="> 3 µM"
molecule="Cc1ccc(NC(=O)[C@H]2CN(C)CC[C@@H]2c2nnc(CCCC(C)(C)C)n2C2CC2)c(C)c1 (racemic)" target_desc="mouse RORγ (Mus musculus)" value_reported="< 3 µM"
molecule=CC(F)(F)c1c([C@@H](CCC(=O)O)CC(=O)Nc2ccc(Cl)cc2F)noc1-c1cc(C(F)(F)C(C)(C)C)on1 target_desc="mouse RORγ (Mus musculus)" value_reported="< 3 µM"
molecule=Cc1c(Cl)cccc1NC(=O)CCc1nnc(C2CN(C(=O)OC(C)(C)C)C2)n1C1CC1 target_desc="mouse RORγ (Mus musculus)" value_reported="< 3 µM"
